// merged dataset of IC50 values, system = Serine/threonine-protein kinase Chk1 (Homo sapiens, UniProt O14757), multiple refs
Biological target: Serine/threonine-protein kinase Chk1 (Homo sapiens, UniProt O14757)
Sequence (O14757 whole entry): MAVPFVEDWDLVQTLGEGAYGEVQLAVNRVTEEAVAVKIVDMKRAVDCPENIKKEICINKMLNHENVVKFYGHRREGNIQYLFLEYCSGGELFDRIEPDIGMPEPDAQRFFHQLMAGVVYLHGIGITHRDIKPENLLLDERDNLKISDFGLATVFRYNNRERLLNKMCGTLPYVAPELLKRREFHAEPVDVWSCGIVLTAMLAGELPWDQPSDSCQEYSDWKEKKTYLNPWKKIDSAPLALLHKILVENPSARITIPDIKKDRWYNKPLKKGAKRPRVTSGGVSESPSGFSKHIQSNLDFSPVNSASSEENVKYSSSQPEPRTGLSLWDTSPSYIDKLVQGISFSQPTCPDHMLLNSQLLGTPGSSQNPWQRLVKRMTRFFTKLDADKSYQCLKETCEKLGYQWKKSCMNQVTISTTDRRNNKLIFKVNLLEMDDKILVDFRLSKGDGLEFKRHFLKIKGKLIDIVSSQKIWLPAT
The response must be a number in nM with no trailing unit.

Query block: Notebook: pull reported IC50 for Serine/threonine-protein kinase Chk1 (Homo sapiens, UniProt O14757), entry O=C1NC(=O)c2c1c1c3ccc(O)cc3[nH]c1c1[nH]c3ccncc3c21
Result block: 14

Query block: // fetch Serine/threonine-protein kinase Chk1 (Homo sapiens, UniProt O14757) IC50 for Cc1[nH]c(-c2ccccc2)c(-c2ccccc2)c1C(=O)c1cn(-c2ccccc2)nc1-c1ccccc1
Result block: 910

Query block: Lab note: need IC50 for COc1ccc2c(c1)C(=O)N(c1nc(C(=O)Nc3cnc(C)cc3N3CCNCC3)cs1)C2 on Serine/threonine-protein kinase Chk1 (Homo sapiens, UniProt O14757), anyone have it?
Result block: 10

Query block: I'm curious: which IC50 was measured for NC(=O)c1cnc(N[C@H]2CCCNC2)c2cc(-c3ccc4[nH]ccc4c3)sc12 tested on Serine/threonine-protein kinase Chk1 (Homo sapiens, UniProt O14757)?
Result block: 60

Query block: Short answer please: IC50, Serine/threonine-protein kinase Chk1 (Homo sapiens, UniProt O14757), entry COc1cc2c(cc1OC(=O)NCc1ccccn1)-c1[nH]nc(-c3ccc(-c4ccc(O)cc4)cc3)c1C2
Result block: 48

Query block: Please provide the recorded IC50 for CNc1nc(Nc2cnc(C#N)c(O[C@@H]3CCCNC3)c2)ncc1-c1cnn(C(F)(F)F)c1 , tested on Serine/threonine-protein kinase Chk1 (Homo sapiens, UniProt O14757).
Result block: 6.8

Query block: Fill in the recorded IC50 for this compound, with Serine/threonine-protein kinase Chk1 (Homo sapiens, UniProt O14757) as test system: CNc1cc(Nc2cnc(C#N)c(O[C@H](C)CN(C)C)n2)ncc1C(=O)OC
Result block: 7

Query block: State its IC50 on Serine/threonine-protein kinase Chk1 (Homo sapiens, UniProt O14757): Cc1[nH]nc2c1c(=O)n(C[C@@H](F)CN)c1cc(C3CCCCC3)c(C3CCCCC3)cc21
Result block: 3.2

Please examine the following record next.
Query block: I'm curious: which IC50 was measured for Cn1cc(-c2cnn3c(N)c(Br)c(CC4CCNC4)nc23)cn1 (configuration not stated) tested on Serine/threonine-protein kinase Chk1 (Homo sapiens, UniProt O14757)?
Result block: 7
